- experimentSummary: LNP Characteristics (size, PDI, encapsulation efficiency) of LNPs formulated with novel ionizable lipids
- Type: physicochemical
- setupConditions: LNP formulated with the ionizable lipid, DOPE, Cholesterol, DMG-PEG2000
observable: Avg. Size (nm)

• CCCCCCCCCCCCCCCC(=O)N(C(CCCCCCC)CCCCCCC)C(C(=O)NC1CCCCC1)C1CCN(CC)CC1 (stereo not shown) = 176.6
• CCCCCCCCCCCCCCCC(=O)N(C(CCCCCCCC)CCCCCCCC)C(C(=O)NC1=CCCCC1)C1CCN(CC)CC1 (stereo not shown) = 190.7
• CCCCCCCCCCC(=O)N(CC(CCCCCCCC)CCCCCCCCCC)C(CC1CCN(C)CC1)C(=O)NC1CCCCCC1 (stereo not shown) = 189.9
• CCCCCCCCCCCCCC(=O)N(C(CCCCCCCC)CCCCCCCC)C(CC1CCN(C)CC1)C(=O)NC1CCCCCC1 (stereo not shown) = 186.9

====

- experimentSummary: LNP Characteristics (size, PDI, encapsulation efficiency) of LNPs formulated with novel ionizable lipids
- Type: physicochemical
- setupConditions: LNP formulated with the ionizable lipid, DOPE, Cholesterol, DMG-PEG2000
Reported Avg. PDI values for a set of compounds
observable: Avg. PDI

• CCCCCCCCCCCCC(CCCCCCCCCC)CN(C(=O)CCC(C)C1CCC2C3CC(O)C4CC(O)CCC4(C)C3CCC12C)C(C(=O)NC12CC3CC(CC(C3)C1)C2)C1CCN(CC)CC1 (stereo not shown) = 0.18
• CCCCCCCCCCCCOC(=O)CCC(=O)N(CC(CCCCCCCC)CCCCCCCCCC)C(C(=O)NC1CCCCCC1)C1CCCN(CC)C1 (stereo not shown) = 0.13
• CCCCCCCCCCCCCCCC(=O)N(C(CCCCCCCC)CCCCCCCC)C(C(=O)NC12CC3CC(CC(C3)C1)C2)C1CCN(CC)CC1 (stereo not shown) = 0.15
• CCCCCCCCCCC(=O)N(CC(CCCCCCCC)CCCCCCCCCC)C(CC1CCN(C)CC1)C(=O)NC1CCCCCC1 (stereo not shown) = 0.14
• CCCCCCCCCCCCCC(=O)N(CC(CCCCCCCC)CCCCCCCCCC)C(C(=O)NC1CCCCC1)C1CCN(CC)CC1 (stereo not shown) = 0.10
• CCCCCCCCCCCCCC(=O)N(CC(CCCCCCCC)CCCCCCCCCC)C(C(=O)NCC(=O)OCC)C1CCN(CC)CC1 (stereo not shown) = 0.17
• CCCCCCCCCCCCCCCCC(=O)N(C(CCCCCCC)CCCCCCC)C(CC1CCN(C)CC1)C(=O)NC1CCCCC1 (stereo not shown) = 0.10
• CCCCCCCCCCCCOC(=O)CCC(=O)N(C(CCCCCCC)CCCCCCC)C(C(=O)NC1CCCCCC1)C1CCN(CC)CC1 (stereo not shown) = 0.12
• CCCCCCCCCCCCCCC(=O)N(C(CCCCCCC)CCCCCCC)C(CC1CCN(C)CC1)C(=O)NC1CCCCCC1 (stereo not shown) = 0.18
• CCCCCCCCCCCC(=O)N(CC(CCCCCCCC)CCCCCCCCCC)C(CC1CCN(C)CC1)C(=O)NC1CCCCCC1 (stereo not shown) = 0.25
• CCCCCC/C=C\CCCCCCCC(=O)N(C(CCCCCCCC)CCCCCCCC)C(C(=O)NC1CCCCCC1)C1CCN(CC)CC1 (stereo not shown) = 0.15
• CCCCCCCCCCCCC(CCCCCCCCCC)CN(C(=O)CCCCCCCCC)C(C(=O)NC(C)(C)C)C1CCN(CC)CC1 (stereo not shown) = 0.16
• CCCCCCCCCCCCC(CCCCCCCCCC)CN(C(=O)CCCCCCCCCC)C(C(=O)NC12CC3CC(CC(C3)C1)C2)C1CCN(CC)CC1 (stereo not shown) = 0.10

The reported measurements were obtained from patent US12551451B2.
